Recorded measurements of IC50 of cell viability, one per entry
# Tested on: MTT (mouse pheochromocytoma)
# Procedure Text: IC50 of cell viability (ATP content)
# Test Settings: (24 or 48 h)
Where a name gives a salt, the structure may show the parent alone.

Give the observed IC50 of cell viability of C=CCN1C[C@H](C)N([C@H](c2ccc(C(=O)N(CC)CC)cc2)c2cccc(OC)c2)C[C@H]1C for MTT (mouse pheochromocytoma).
> 46 µM

Fill in: IC50 of cell viability on MTT (mouse pheochromocytoma), entry C[n+]1ccccc1/C=N\O [Pralidoxime chloride]
> 46 µM

Param request: IC50 of cell viability | system MTT (mouse pheochromocytoma) | item COC(F)(F)C(Cl)Cl
> 46 µM

Look up MTT (mouse pheochromocytoma) data: IC50 of cell viability of C=CCC1(O)CCC2C3CCC4=CC(=O)CCC4=C3C=CC21C (configuration not stated) , then report it.
> 46 µM

Recall the reported IC50 of cell viability of CCN(CC)N(O)N=O.CCNCC [2-(N,N-DIETHYLAMINO)DIAZENOLATE-2-OXIDE DIETHYLAMONIUM SALT] on MTT (mouse pheochromocytoma) and write it down.
> 46 µM

Report the value of IC50 of cell viability obtained on MTT (mouse pheochromocytoma) for CC(=O)OCC(=O)NCCCOc1cccc(CN2CCCCC2)c1 [ROXATIDINE ACETATE HYDROCHLORIDE] .
> 46 µM

----------
# Tested on: MTT (mouse pheochromocytoma)
# Procedure Text: IC50 of cell viability (ATP content)
# Test Settings: (24 or 48 h)
Observable: IC50 of cell viability

Please list IC50 of cell viability recorded for the molecule OCc1ccc(Cl)cc1Cl
> 46 µM

----------
# System: MTT (mouse pheochromocytoma)
# Procedure Text: IC50 of cell viability (ATP content)
# Test Settings: (24 or 48 h)
Where a name gives a salt, the structure may show the parent alone.
Observable: IC50 of cell viability

Compound	IC50 of cell viability
CCOc1cc(CC(=O)N[C@@H](CC(C)C)c2ccccc2N2CCCCC2)ccc1C(=O)O [Repaglinide]	> 46 µM
O=C(O)CCNC(=O)c1ccccc1	> 46 µM
OCCN(CCO)c1nc(N2CCCCC2)c2nc(N(CCO)CCO)nc(N3CCCCC3)c2n1	> 46 µM
CC(C)CC1C(=O)N2CCCC2C2(O)OC(NC(=O)C3CC4c5cccc6[nH]cc(c56)CC4N(C)C3)(C(C)C)C(=O)N12 (configuration not stated) [Dihydroergocriptine]	> 46 µM
[Na+].CO[C@@]1(NC(=O)CSCC#N)[C@@H]2SC\C(=C(/N2C1=O)C([O-])=O)CSC3=NN=N[N]3C [Cefmetazole sodium salt]	> 46 µM
COC(=O)c1c(Cl)c(Cl)c(C(=O)OC)c(Cl)c1Cl	> 46 µM
CCN(CC)Cc1cc(Nc2ccnc3cc(Cl)ccc23)ccc1O.Cl.Cl.O.O [Amodiaquin dihydrochloride dihydrate]	> 46 µM
Oc1ccc([C@H]2CNCc3c2ccc(O)c3O)cc1O [SELANDOPAM HYDROCHLORIDE HYDRATE (ZELANDOPAM)]	> 46 µM

Respond only with IC50 of cell viability recorded for CN1CC[C@@]23C4OC5=C(O)C=CC(=C25)C[C@@H]1C3\C=C/C4O (some centres not stated)
> 46 µM

Indicate the recorded IC50 of cell viability value for this compound: O=NN(CCCl)C(=O)NCCCl
> 46 µM

Answer with the recorded IC50 of cell viability of O=C(CCCN1CCC(O)(c2ccc(Br)cc2)CC1)c1ccc(F)cc1 only.
> 46 µM

Identify measured IC50 of cell viability corresponding to c1ccc(C2(c3ccccc3)CC2C2=NCCN2)cc1 (configuration not stated) [Cibenzoline succinate]
> 46 µM

Give me measured IC50 of cell viability, please, for this compound: OC(CCN1CCCCC1)(c1ccccc1)C1CC2C=CC1C2 (configuration not stated)
> 46 µM

Specify IC50 of cell viability for COc1cc(C(=S)N2CCOCC2)cc(OC)c1OC and stop.
> 46 µM
